Assay: Half life in pH 7.4 PBS buffer at […] incubated at 37 degC by HPLC
Format: physicochemical
metricName: half-life (h)
Give the quantity in h, number only.

Solved cases below.
CSc1ccc(OP(=O)(Oc2ccc(SC)cc2)C(NC(=O)[C@@H]2CCCN2C(=O)[C@@H](NC(=O)COc2ccc(OCC(=O)O)cc2)C(C)C)C(C)C)cc1 (mixture of isomers) ... 150
CSc1ccc(OP(=O)(Oc2ccc(SC)cc2)C(NC(=O)[C@@H]2CCCN2C(=O)[C@@H](NC(=O)Cn2ccc(=O)n(CC(=O)O)c2=O)C(C)C)C(C)C)cc1 (mixture of isomers) ... 100
CSc1ccc(OP(=O)(Oc2ccc(SC)cc2)C(NC(=O)[C@@H]2CCCN2C(=O)[C@@H](NC(=O)OC(C)(C)C)C(C)C)C(C)C)cc1 (mixture of isomers) ... 28
CSc1ccc(OP(=O)(Oc2ccc(SC)cc2)C(NC(=O)[C@@H]2CCCN2C(=O)[C@@H](NC(=O)Cn2cc(C)c(=O)n(CC(=O)O)c2=O)C(C)C)C(C)C)cc1 (mixture of isomers) ... 100

Consider the record given below.
// query half-life lookup needed for COc1ccc(C(=O)N[C@H](C(=O)N2CCC[C@H]2C(=O)NC(C(C)C)P(=O)(Oc2ccc(SC)cc2)Oc2ccc(SC)cc2)C(C)C)cc1 (mixture of isomers) , thanks.
// result 26

---

# Ratio per entry
Assay: Inhibition of trypsin at 25 uM assessed as Kinact/Ki ratio incubated for 15 mins by spectrofluorometry

Use these answered entries as a reference point.
CSc1ccc(OP(=O)(Oc2ccc(SC)cc2)C(NC(=O)[C@@H]2CCCN2C(=O)[C@H](C)NC(=O)OCc2ccccc2)C(C)C)cc1 (mixture of isomers) ... < 50 M⁻¹ s⁻¹
CC(C)c1ccc(OP(=O)(Oc2ccc(C(C)C)cc2)C(NC(=O)[C@@H]2CCCN2C(=O)[C@@H](NC(=O)OC(C)(C)C)C(C)C)C(C)C)cc1 (mixture of isomers) ... < 50 M⁻¹ s⁻¹
CSc1ccc(OP(=O)(Oc2ccc(SC)cc2)C(NC(=O)[C@@H]2CCCN2C(=O)CNC(=O)OC(C)(C)C)C(C)C)cc1 (mixture of isomers) ... < 50 M⁻¹ s⁻¹
CSc1ccc(OP(=O)(Oc2ccc(SC)cc2)[C@H](NC(=O)[C@@H]2CCCN2C(=O)[C@@H](NC(=O)COc2ccc(OCC(=O)O)cc2)C(C)C)C(C)C)cc1 ... < 50 M⁻¹ s⁻¹
CC(C)CC(NC(=O)[C@@H]1CCCN1C(=O)[C@@H](NC(=O)OC(C)(C)C)C(C)C)P(=O)(Oc1ccc(Cl)cc1)Oc1ccc(Cl)cc1 (mixture of isomers) ... < 50 M⁻¹ s⁻¹

Continue with the compound presented below.
// query Consider the compound CCC(NC(=O)[C@@H]1CCCN1C(=O)[C@@H](NC(=O)OC(C)(C)C)C(C)C)P(=O)(Oc1ccc(SC)cc1)Oc1ccc(SC)cc1 (mixture of isomers) and give its measured Ratio.
// result 460 M⁻¹ s⁻¹

---

Reported Ratio values are given for each entry in this list.
Target: Pancreatic elastase (Sus scrofa) (UniProt P08419+P00772)
Test: Inhibition of porcine pancreatic elastase at 25 uM assessed as Kinact/Ki ratio incubated for 15 mins by spectrofluorometry
Type: protein assay
Response body: numeric value in M⁻¹ s⁻¹, unit text excluded.

CCC(NC(=O)[C@@H]1CCCN1C(=O)[C@@H](NC(=O)OC(C)(C)C)C(C)C)P(=O)(Oc1ccc(C)c(C)c1)Oc1ccc(C)c(C)c1 (mixture of isomers) ... 1250
CSc1ccc(OP(=O)(Oc2ccc(SC)cc2)C(NC(=O)[C@@H]2CCCN2C(=O)[C@@H](NC(=O)OC(C)(C)C)C(C)C)C(C)C)cc1 (mixture of isomers) ... 14000

Consider the additional compound presented here.
// query Need Ratio of CCCCC(NC(=O)[C@@H]1CCCN1C(=O)[C@@H](NC(=O)OC(C)(C)C)C(C)C)P(=O)(Oc1ccccc1)Oc1ccccc1 (mixture of isomers) , thanks.
// result 1700

---

Catalogue of log10 Ratio values
Experiment: Inhibition of chymotrypsin at 25 uM assessed as Kinact/Ki ratio incubated for 15 mins by spectrofluorometry
On a log10 scale: recorded Ratio, unit M⁻¹ s⁻¹.

Here's what some known entries look like.
COc1ccc(OP(=O)(Oc2ccc(OC)cc2)C(CC(C)C)NC(=O)[C@@H]2CCCN2C(=O)[C@@H](NC(=O)OC(C)(C)C)C(C)C)cc1 (mixture of isomers) ... 3.23
CSc1ccc(OP(=O)(Oc2ccc(SC)cc2)C(NC(=O)[C@@H]2CCCN2C(=O)[C@@H](NC(=O)COc2ccc(OCC(=O)O)cc2)C(C)C)C(C)C)cc1 (mixture of isomers) ... 3.60
CC(C)CC(NC(=O)[C@@H]1CCCN1C(=O)[C@@H](NC(=O)OC(C)(C)C)C(C)C)P(=O)(Oc1ccccc1)Oc1ccccc1 (mixture of isomers) ... 3.28
CC[C@H](C)[C@H](NC(=O)OCc1ccccc1)C(=O)N1CCC[C@H]1C(=O)NC(C(C)C)P(=O)(Oc1ccc(SC)cc1)Oc1ccc(SC)cc1 (mixture of isomers) ... 3.20
CSc1ccc(OP(=O)(Oc2ccc(SC)cc2)C(NC(=O)[C@@H]2CCCN2C(=O)[C@@H](NC(=O)Cn2ccc(=O)n(CC(=O)O)c2=O)C(C)C)C(C)C)cc1 (mixture of isomers) ... 4.45
COC(=O)c1cccc(OP(=O)(Oc2cccc(C(=O)OC)c2)C(CC(C)C)NC(=O)[C@@H]2CCCN2C(=O)[C@@H](NC(=O)OC(C)(C)C)C(C)C)c1 (stereo partly specified) ... 5.22

Turning to the following compound.
// query Given the compound `CSc1ccc(OP(=O)(Oc2ccc(SC)cc2)[C@@H](NC(=O)[C@@H]2CCCN2C(=O)[C@@H](NC(=O)Cn2cc(C)c(=O)n(CC(=O)O)c2=O)C(C)C)C(C)C)cc1` , what is its reported log10 Ratio?
// result 4.65

---

Experiment: Inhibition of chymotrypsin at 25 uM assessed as Kinact/Ki ratio incubated for 15 mins by spectrofluorometry
Known log10 Ratio of a selection of molecules
Plainly stated, the numbers are log10 of Ratio given in M⁻¹ s⁻¹.

CSc1ccc(OP(=O)(Oc2ccc(SC)cc2)C(NC(=O)[C@@H]2CCCN2C(=O)[C@H](CC(C)C)NC(=O)OC(C)(C)C)C(C)C)cc1 (mixture of isomers) ... 2.18
CSc1ccc(OP(=O)(Oc2ccc(SC)cc2)C(NC(=O)[C@@H]2CCCN2C(=O)[C@H](COC(C)(C)C)NC(=O)OCc2ccccc2)C(C)C)cc1 (mixture of isomers) ... 2.70
CSc1ccc(OP(=O)(Oc2ccc(SC)cc2)C(NC(=O)[C@@H]2CCCN2C(=O)[C@@H](NC(=O)Cn2cc(C)c(=O)n(CC(=O)O)c2=O)C(C)C)C(C)C)cc1 (mixture of isomers) ... 4.36
CSc1ccc(OP(=O)(Oc2ccc(SC)cc2)C(NC(=O)[C@@H]2CCCN2C(=O)[C@@H](NC(=O)OC(C)(C)C)C(C)C)C(C)C)cc1 (mixture of isomers) ... 2.95
CSc1ccc(OP(=O)(Oc2ccc(SC)cc2)C(NC(=O)[C@@H]2CCCN2C(=O)CNC(=O)OCc2ccccc2)C(C)C)cc1 (mixture of isomers) ... 2.30

// query Entry CSCC[C@H](NC(=O)OCc1ccccc1)C(=O)N1CCC[C@H]1C(=O)NC(C(C)C)P(=O)(Oc1ccc(SC)cc1)Oc1ccc(SC)cc1 (mixture of isomers) : reported log10 Ratio = ?
// result 3.57

---

Test: Inhibition of chymotrypsin at 25 uM assessed as Kinact/Ki ratio incubated for 15 mins by spectrofluorometry
The following molecules are shown together with reported Ratio values.
Give just the number in M⁻¹ s⁻¹; leave the unit off.

CSc1ccc(OP(=O)(Oc2ccc(SC)cc2)C(NC(=O)[C@@H]2CCCN2C(=O)[C@@H](NC(=O)OCc2ccccc2)C(C)C)C(C)C)cc1 (mixture of isomers) ... 4400

// query Looking for the measured Ratio of CCCCC(NC(=O)[C@@H]1CCCN1C(=O)[C@@H](NC(=O)OC(C)(C)C)C(C)C)P(=O)(Oc1ccc(SC)cc1)Oc1ccc(SC)cc1 (mixture of isomers) , can you help?
// result 4250

---

Molecular target: Pancreatic elastase (Sus scrofa) (UniProt P08419+P00772)
Test: Inhibition of porcine pancreatic elastase at 25 uM assessed as Kinact/Ki ratio incubated for 15 mins by spectrofluorometry
Type: protein assay
Binary call on Ratio with cut-off 5000 M⁻¹ s⁻¹: strictly below means TRUE, and equality or higher means FALSE.

Past entries and their recorded results:
CCCC(NC(=O)[C@@H]1CCCN1C(=O)[C@@H](NC(=O)OC(C)(C)C)C(C)C)P(=O)(Oc1ccc(SC)cc1)Oc1ccc(SC)cc1 (mixture of isomers) ... FALSE
CSc1ccc(OP(=O)(Oc2ccc(SC)cc2)[C@@H](NC(=O)[C@@H]2CCCN2C(=O)[C@@H](NC(=O)Cn2cc(C)c(=O)n(CC(=O)O)c2=O)C(C)C)C(C)C)cc1 ... FALSE
CSc1ccc(OP(=O)(Oc2ccc(SC)cc2)C(NC(=O)[C@@H]2CCCN2C(=O)[C@@H](NC(=O)Cn2cc(C)c(=O)n(CC(=O)O)c2=O)C(C)C)C(C)C)cc1 (mixture of isomers) ... FALSE

// query Problem: For the compound CSc1ccc(OP(=O)(Oc2ccc(SC)cc2)C(NC(=O)[C@@H]2CCCN2C(=O)CNC(=O)OCc2ccccc2)C(C)C)cc1 (mixture of isomers) , is Ratio under 5000 M⁻¹ s⁻¹?
// result TRUE

// query Determine whether this compound shows Ratio lower than 5000 M⁻¹ s⁻¹ (ties excluded): `CSc1ccc(OP(=O)(Oc2ccc(SC)cc2)[C@H](NC(=O)[C@@H]2CCCN2C(=O)[C@@H](NC(=O)Cn2ccc(=O)n(CC(=O)O)c2=O)C(C)C)C(C)C)cc1`
// result TRUE

// query Check if Ratio falls below 5000 M⁻¹ s⁻¹ for `CSc1ccc(OP(=O)(Oc2ccc(SC)cc2)[C@H](NC(=O)[C@@H]2CCCN2C(=O)[C@@H](NC(=O)Cn2cc(C)c(=O)n(CC(=O)O)c2=O)C(C)C)C(C)C)cc1` .
// result TRUE

// query Does the reported Ratio of the following compound sit strictly below 5000 M⁻¹ s⁻¹? `CSc1ccc(OP(=O)(Oc2ccc(SC)cc2)[C@@H](NC(=O)[C@@H]2CCCN2C(=O)[C@@H](NC(=O)OC(C)(C)C)C(C)C)C(C)C)cc1`
// result FALSE

// query # strict comparison: is reported Ratio < 5000 M⁻¹ s⁻¹? input = CC[C@H](C)[C@H](NC(=O)OCc1ccccc1)C(=O)N1CCC[C@H]1C(=O)NC(C(C)C)P(=O)(Oc1ccc(SC)cc1)Oc1ccc(SC)cc1 (mixture of isomers)
// result TRUE
